Exercise: state measured Antibody dissociation rate (%) at pH 3.0 for each of the binders provided.
molecular target: human IgG (IgG Sepharose 6 Fast Flow, GE Healthcare Biosciences Corp.) (human); test: IgG Sepharose 6 Fast Flow column; bound at neutral pH, eluted at pH 3.0 then pH 2.5; peak area A/(A+B)
Give bare numbers, in %.

>>> reported_measurement("Recombinant immunoglobulin κ light chain binding protein KBP6 (designed binder) KETPETPEEPKEEVTIKVNLIFADGKTQTATHKGTFEEATAEAYRYADLLAKVNGEYTADLEDGGYTINIKFAGKKETPETPEEPKEEVTIKVNLIFADGKTQTATHKGTFEEATAEAYRYADLLAKVNGEYTADLEDGGYTINIKFAGKKETPETPEEPKEEVTIKVNLIFADGKTQTATHKGTFEEATAEAYRYADLLAKVNGEYTADLEDGGYTINIKFAGKKETPETPEEPKEEVTIKVNLIFADGKTQTATHKGTFEEATAEAYRYADLLAKVNGEYTADLEDGGYTINIKFAGK")
92
>>> reported_measurement("Recombinant immunoglobulin κ light chain binding protein KBP3 (designed binder) KETPETPEEPKEEVTIKVNHIFADGKTQTATFKGTFEEATAEAYRYADLLAKVNGEYTADLEDGGYTINIKFAGKKETPETPEEPKEEVTIKVNHIFADGKTQTATFKGTFEEATAEAYRYADLLAKVNGEYTADLEDGGYTINIKFAGKKETPETPEEPKEEVTIKVNHIFADGKTQTATFKGTFEEATAEAYRYADLLAKVNGEYTADLEDGGYTINIKFAGKKETPETPEEPKEEVTIKVNHIFADGKTQTATFKGTFEEATAEAYRYADLLAKVNGEYTADLEDGGYTINIKFAGK")
95
>>> reported_measurement("Recombinant immunoglobulin κ light chain binding protein KBP4 (designed binder) KETPETPEEPKEEVTIKVNLIFADGKTHTATFKGTFEEATAEAYRYADLLAKVNGEYTADLEDGGYTINIKFAGKKETPETPEEPKEEVTIKVNLIFADGKTHTATFKGTFEEATAEAYRYADLLAKVNGEYTADLEDGGYTINIKFAGKKETPETPEEPKEEVTIKVNLIFADGKTHTATFKGTFEEATAEAYRYADLLAKVNGEYTADLEDGGYTINIKFAGKKETPETPEEPKEEVTIKVNLIFADGKTHTATFKGTFEEATAEAYRYADLLAKVNGEYTADLEDGGYTINIKFAGK")
95

Please state Antibody dissociation rate (%) at pH 3.0 for every binder in the list that follows.
1. Recombinant immunoglobulin κ light chain binding protein KBP1 (designed binder) KETPETPEEPKEEVTHKVNLIFADGKTQTATFKGTFEEATAEAYRYADLLAKVNGEYTADLEDGGYTINIKFAGKKETPETPEEPKEEVTHKVNLIFADGKTQTATFKGTFEEATAEAYRYADLLAKVNGEYTADLEDGGYTINIKFAGKKETPETPEEPKEEVTHKVNLIFADGKTQTATFKGTFEEATAEAYRYADLLAKVNGEYTADLEDGGYTINIKFAGKKETPETPEEPKEEVTHKVNLIFADGKTQTATFKGTFEEATAEAYRYADLLAKVNGEYTADLEDGGYTINIKFAGK
2. Recombinant immunoglobulin κ light chain binding protein KBP9 (designed binder) KETPETPEEPKEEVTIKVNLIFADGKTQTATFKGTFEEATAKAYRYADLLAKVNGEYTADLEDGGYTINIKFAGKKETPETPEEPKEEVTIKVNLIFADGKTQTATFKGTFEEATAKAYRYADLLAKVNGEYTADLEDGGYTINIKFAGKKETPETPEEPKEEVTIKVNLIFADGKTQTATFKGTFEEATAKAYRYADLLAKVNGEYTADLEDGGYTINIKFAGKKETPETPEEPKEEVTIKVNLIFADGKTQTATFKGTFEEATAKAYRYADLLAKVNGEYTADLEDGGYTINIKFAGK
3. Recombinant immunoglobulin κ light chain binding protein KBP12 (designed binder) KETPETPEEPKEEVTIKVNLIFADGRTQTATFKHRFEEATAKAYRYADLLAKVQGEYTADLEDGGYTINIKFAGKKETPETPEEPKEEVTIKVNLIFADGRTQTATFKHRFEEATAKAYRYADLLAKVQGEYTADLEDGGYTINIKFAGKKETPETPEEPKEEVTIKVNLIFADGRTQTATFKHRFEEATAKAYRYADLLAKVQGEYTADLEDGGYTINIKFAGKKETPETPEEPKEEVTIKVNLIFADGRTQTATFKHRFEEATAKAYRYADLLAKVQGEYTADLEDGGYTINIKFAGK
4. Recombinant immunoglobulin κ light chain binding protein KBP10 (designed binder) KETPETPEEPKEEVTIKVNLIFADGKTQTATFKGTFEEATAEAYRYADLLAKVNGEHTADLEDGGYTINIKFAGKKETPETPEEPKEEVTIKVNLIFADGKTQTATFKGTFEEATAEAYRYADLLAKVNGEHTADLEDGGYTINIKFAGKKETPETPEEPKEEVTIKVNLIFADGKTQTATFKGTFEEATAEAYRYADLLAKVNGEHTADLEDGGYTINIKFAGKKETPETPEEPKEEVTIKVNLIFADGKTQTATFKGTFEEATAEAYRYADLLAKVNGEHTADLEDGGYTINIKFAGK
5. Recombinant immunoglobulin κ light chain binding protein KBP11 (designed binder) KETPETPEEPKEEVTIKVNLIFADGKTQTATFKGTFEEATAEAYRYADLLAKVNGEYTADLEDGGYTINHKFAGKKETPETPEEPKEEVTIKVNLIFADGKTQTATFKGTFEEATAEAYRYADLLAKVNGEYTADLEDGGYTINHKFAGKKETPETPEEPKEEVTIKVNLIFADGKTQTATFKGTFEEATAEAYRYADLLAKVNGEYTADLEDGGYTINHKFAGKKETPETPEEPKEEVTIKVNLIFADGKTQTATFKGTFEEATAEAYRYADLLAKVNGEYTADLEDGGYTINHKFAGK

Ans.
95
95
100
97
99
